Values were extracted from paper PMC8073977.

Target: T1, Ribosomal protein S19 from Mycobacterium tuberculosis (MtbS19, residues 1-93) (Mycobacterium tuberculosis strain H37Rv, UniProt P9WH45 1-93)
T1 construct: 30S ribosomal protein S19, M. tuberculosis H37Rv, residues 1-93; pET-28a with thrombin-cleavable N-terminal His6-tag; Surmise: a few vector residues remain at the N-terminus after thrombin cleavage; In PDB 5V93 residues 84-93 of S19 are absent; not shown: His6, N-terminal, cleaved
T1 sequence (P9WH45 whole entry, the tested form may be a part): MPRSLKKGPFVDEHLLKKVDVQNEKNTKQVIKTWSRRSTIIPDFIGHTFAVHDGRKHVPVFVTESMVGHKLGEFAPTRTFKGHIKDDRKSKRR
Assay: SPR; Biacore T200, 298 K; […]; 20 mM potassium phosphate pH 7.2, 100 mM KCl; […]
Conditions: both partners purified
reported_property: Kd (µM)
# output: bare number, implied unit µM

Q. # query: Kd of entry MtbRimMCTD D105A (domain or fragment, Same limits and tag as m1; also called MtbRimM D105A; not shown: His6, C-terminal, kept) DTYYAHQLVGLMVQTATGEGVGVVTEVVHTAAGELLAVKRDSDEVLVPFVRAIVTSVSLDDGIVEIDPPHGLLNLE
A. 7.06

Q. # query: Kd of entry MtbRimMCTD H129A (domain or fragment, Same limits and tag as m1; not shown: His6, C-terminal, kept) DTYYDHQLVGLMVQTATGEGVGVVTEVVATAAGELLAVKRDSDEVLVPFVRAIVTSVSLDDGIVEIDPPHGLLNLE
A. 12.7

Q. # query: Kd of entry C-terminal domain of RimM from Mycobacterium tuberculosis (MtbRimMCTD, residues 101-176), wild type (domain or fragment, A starting Met stands before D101 (Nde I site); Surmise: pET-22b with Xho I adds Leu-Glu before the His6 tag; Theoretical Mw of the recombinant protein printed as 9.28 kDa; 15N-labelled in the NMR titrations, unlabelled in SPR; also called WT MtbRimMCTD; not shown: His6, C-terminal, kept) DTYYDHQLVGLMVQTATGEGVGVVTEVVHTAAGELLAVKRDSDEVLVPFVRAIVTSVSLDDGIVEIDPPHGLLNLE
A. 2.16
